# PROTOCOL_TEXT: qHTS for Inhibitors of Inflammasome Signaling: IL-1-beta AlphaLISA Primary Screen; also: % is scaled to controls: 0 for no effect and ±100 for the full control effect
# CONDITIONS: THP-1 LPS/ATP IL-1B secretion, 16 h; at 57.5 µM, stronger effect = lower value
The whole screen tested about 360,000 compounds, of which about 17,000 (4.7%) were called active. Inconclusive results (about 5%) are left out. Shown is part of a subset that was picked to be rich in actives.
For each of the molecules below, state its activity change.
Numbers only, in %.

List activity change for every entry below, keeping the order given.
1. CC1(C(=O)NS(=O)(=O)c2ccccc2)CCN1C(=O)c1ccccc1 (stereo not given)
2. Cc1cccc(CN2CCN(C3CN(Cc4ccccc4)S(=O)(=O)C3)CC2)c1 (stereo not given)

1. 21
2. 5.62

List activity change for every entry below, keeping the order given.
1. CCOC(=O)c1c(C)[nH]c2c1-c1ccccc1C(=O)C2=O
2. COC(=O)[C@@]12C[C@@H](CC(=O)N3CCCCC3)C(=O)N(Cc3ccc4c(c3)OCO4)C1=CCC(C)(C)C2
3. CC(=O)O[C@]1(C(C)=O)CC[C@H]2[C@@H]3C=C(C)C4=CC(=O)CC[C@]4(C)[C@H]3CC[C@@]21C
4. COc1cccc2oc(CCc3ccccc3)cc(=O)c12
5. Cc1nc2ccccc2nc1CC(O)(c1ccccc1)c1ccccc1
6. CC1=C(C(=O)N(C)C)CC(CC(=O)NCCN2CCOCC2)C(=O)N1Cc1ccccc1 (stereo not given)

1. -53.9
2. -13.6
3. -10.2
4. -5.15
5. 3.22
6. 17.7
